These entries and their values trace back to ChEMBL document CHEMBL1201862.

test system: ACHN; experiment: NCI tumour cell line growth inhibition, 48 h
Activity calls are given as the source filed them. Rule as the data show it: active = GI50 up to about 1.1 µM and inactive = higher.
measured_property: GI50

molecule	assayed_target	measured_property	observed_measurement
O=C(/C=C\c1ccc(-c2ccccc2)cc1)c1cccs1	ACHN	GI50	32.3 µM (inactive)
CCN(CC)C(=S)SC(C(=O)Nc1nnc(-c2ccc(Cl)cc2)o1)c1ccccc1 (stereo not drawn)	ACHN	GI50	6.64 µM (inactive)
Oc1nc(-c2ccccc2)cc(-c2ccccc2O)n1	ACHN	GI50	67.6 µM (inactive)
COc1ccc([C@H]2C=C(c3cc(F)c(Cl)cc3Cl)N=c3s/c(=C\c4ccc(-c5ccc(Cl)cc5Cl)o4)c(=O)n32)cc1	ACHN	GI50	> 100 µM (inactive)
Brc1ccc2nc(-c3cccs3)nc(N3CCN(c4ccccc4)CC3)c2c1	ACHN	GI50	> 100 µM (inactive)
CCCCCCCCCC(=O)N[C@@H](c1ccco1)[C@@H](O)C(=O)O[C@H]1C[C@@]2(O)[C@@H](OC(=O)c3ccccc3)[C@@H]3[C@]4(OC(C)=O)CO[C@@H]4C[C@H](O)[C@@]3(C)C(=O)[C@H](OC(C)=O)C(=C1C)C2(C)C	ACHN	GI50	2.92 µM (inactive)
Cc1cc(C)c2c(n1)S(=O)(=O)N(CCCN1CCN(c3cccc(C(F)(F)F)c3)CC1)C(C(=O)c1ccccc1)=C2O	ACHN	GI50	9.04 µM (inactive)
COc1c2c(cc3occ(-c4ccc(CC=C(C)C)cc4)c(=O)c13)OC(C)(C)C=C2	ACHN	GI50	77.6 µM (inactive)
